- experimental_target: UniProt P20272
- experimental_details: CB1 cyclase functional assay (HitHunter cAMP)
- recorded_conditions: HEK cells, forskolin 37 μM; read-out: rCB1 cyclase (EC50)
property_label: EC50 (nM)
Just the number in nM, nothing appended.

Measured EC50 of CCCCn1nc(C(C)(C)C)s/c1=N\C(=O)c1cc(C(F)(F)F)ccc1ONC(C)C : 415

Reported EC50 ( CC(C)(C)NOc1ccc(C(F)(F)F)cc1C(=O)/N=c1\sc(C(C)(C)C)nn1CC1CCC1 ) = 925

Data point: CCCCn1nc(C(C)(C)C)s/c1=N\C(=O)c1cc(C(F)(F)F)ccc1ONC(=O)OC(C)(C)C ; EC50 = 273

Field EC50 (entry CCCCn1nc(C(C)(C)C)s/c1=N\C(=O)c1cc(C(F)(F)F)ccc1ONC(C)=O ) reads 58

Just so you know, measured EC50 for CC(C)(C)NOc1ccc(C(F)(F)F)cc1C(=O)/N=c1\sc(C(C)(C)C)nn1CCCC#N came out at 938

// EC50 value for CCCCn1nc(C(C)(C)C)s/c1=N\C(=O)c1cc(C(F)(F)F)ccc1ON=C(N)C(C)(C)C : 6960
